# Test system: Acetylcholinesterase (Bos taurus, UniProt P23795)
# Sequence (P23795 whole entry): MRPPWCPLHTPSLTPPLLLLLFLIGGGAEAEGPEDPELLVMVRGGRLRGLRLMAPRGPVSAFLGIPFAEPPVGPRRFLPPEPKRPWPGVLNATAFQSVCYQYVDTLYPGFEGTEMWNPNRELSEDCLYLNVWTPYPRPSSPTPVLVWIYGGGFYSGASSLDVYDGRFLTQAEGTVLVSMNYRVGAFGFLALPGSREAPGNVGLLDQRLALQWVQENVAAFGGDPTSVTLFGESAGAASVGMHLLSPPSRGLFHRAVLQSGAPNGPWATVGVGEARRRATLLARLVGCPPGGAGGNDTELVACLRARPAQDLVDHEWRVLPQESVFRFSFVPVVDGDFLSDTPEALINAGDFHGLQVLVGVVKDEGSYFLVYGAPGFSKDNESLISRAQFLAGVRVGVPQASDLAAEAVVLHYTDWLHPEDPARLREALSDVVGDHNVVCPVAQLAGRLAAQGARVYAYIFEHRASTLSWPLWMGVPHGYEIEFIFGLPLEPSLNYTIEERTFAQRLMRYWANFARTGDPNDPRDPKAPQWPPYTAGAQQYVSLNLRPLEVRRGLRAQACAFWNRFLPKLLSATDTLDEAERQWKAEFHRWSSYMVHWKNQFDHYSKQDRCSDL
pIC50: −log10 of the molar value.
Known pIC50 of a selection of molecules
Readout: pIC50

- N#Cc1c(Cl)nc2nc3c(c(N)c2c1-c1ccccc1)CCCC3: < 4.00
- N#Cc1cc2c(N)c3c(nc2nc1Cl)CCN(Cc1ccccc1)C3: < 4.00
- N#Cc1cc2c(N)c3c(nc2nc1Cl)CCCC3: < 4.00

The origin of these recorded values is ChEMBL document CHEMBL1641430.
